# Kd per record follows
Molecular target: T1, CCL1_HUMAN (Homo sapiens, UniProt P22362)
T1 sequence (P22362 24-96): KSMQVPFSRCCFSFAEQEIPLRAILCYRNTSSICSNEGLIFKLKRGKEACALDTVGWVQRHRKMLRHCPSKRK
Experiment: Biolayer interferometry (BLI) binding
Number in nM, nothing else.

Study these solved cases before continuing.
P546_AMBCA: tick CKBP, Amblyomma cajennense (protein, Amblyomma cajennense) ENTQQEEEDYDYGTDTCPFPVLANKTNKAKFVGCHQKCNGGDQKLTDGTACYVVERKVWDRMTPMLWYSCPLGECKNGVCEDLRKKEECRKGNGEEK
160
P467_RHIPU: tick CKBP (evasin), Rhipicephalus pulchellus; RPU-01 stated identical (protein, listed as Rhipicephalus pulchellus) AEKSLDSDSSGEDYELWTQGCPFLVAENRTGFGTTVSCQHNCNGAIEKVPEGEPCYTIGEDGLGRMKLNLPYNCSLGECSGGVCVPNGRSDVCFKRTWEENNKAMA
53.4
P974_AMBCA: tick CKBP, Amblyomma cajennense; ACA-01 stated identical (protein, Amblyomma cajennense, tick CKBP, Amblyomma cajennense; ACA-01 stated identical) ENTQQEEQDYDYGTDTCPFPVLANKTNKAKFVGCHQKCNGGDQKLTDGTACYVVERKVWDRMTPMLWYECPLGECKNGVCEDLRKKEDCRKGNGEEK
70.5
P985_AMBPA: tick CKBP, Amblyomma parvum (protein, listed as Amblyomma parvum) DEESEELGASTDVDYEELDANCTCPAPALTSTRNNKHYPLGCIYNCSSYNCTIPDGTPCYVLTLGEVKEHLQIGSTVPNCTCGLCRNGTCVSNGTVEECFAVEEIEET
8.3

Incoming: Query (molecule): P1243_AMBAM: tick CKBP, Amblyomma americanum; AAM-02 stated identical (protein, listed as Amblyomma americanum) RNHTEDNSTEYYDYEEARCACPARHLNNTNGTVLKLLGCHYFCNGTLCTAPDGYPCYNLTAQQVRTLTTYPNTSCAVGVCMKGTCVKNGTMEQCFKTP ; field requested: Kd
Outgoing: 21.3
